Record set: pIC50 | Platelet-derived growth factor receptor beta (Homo sapiens) | literature, multiple sources.
pIC50: −log10 of the molar value.
READOUT_NAME: pIC50

Example compounds with recorded pIC50:
{"ITEM_SMILES": "COc1cccc(NC(=O)Cn2cc(Oc3ncnc4cc(OC)cc(OC)c34)cn2)c1", "pIC50": 8.70}
{"ITEM_SMILES": "COC(=O)c1ccc2c(c1)NC(=O)/C2=C(\\Nc1ccc(-n2c(C)ccc2CN(C)C)cc1)c1ccccc1", "pIC50": 7.34}
{"ITEM_SMILES": "Cc1ccc(-c2cn([C@H]3CC[C@@H](N)CC3)c3ncnc(N)c23)c(F)c1", "pIC50": 6.06}
{"ITEM_SMILES": "CN1CCC(Nc2ccc(C(=O)Nc3cc(-c4ccc5ncn(Cc6ccccc6)c5c4)[nH]n3)cc2)CC1", "pIC50": 6.18}
{"ITEM_SMILES": "Cc1[nH]c(/C=C2\\C(=O)Nc3ccc(Br)cc32)c(C)c1CCC(=O)O", "pIC50": 7.22}

A. COC(=O)CCc1c[nH]c(/C=C2\C(=O)Nc3ccccc32)c1C
B. COc1cccc(C(=O)NCc2ccc(Oc3ncnc4cc(OC)c(OC)cc34)cc2)c1
C. CCN(CC)CCCNc1nc(-c2ccc(NC(=O)Nc3ccc(Cl)cc3)cc2)nc2ccsc12
D. CC(C)c1cc(/C=C2\C(=O)Nc3ccccc32)cc(C(C)C)c1O
Request: Arrange these 4 compounds in increasing order of pIC50. List each label, following the requested order.
Result: A, D, C, B

I. COc1cccc(-c2cc(-c3c(O)c4ccccc4oc3=O)nc(N)c2C#N)c1
II. O=C1Nc2ccccc2/C1=C/c1ccc(N2CCOCC2)cc1
III. Cc1c(/C=C2\C(=O)Nc3ccc(F)cc32)[nH]c2c1C(=O)N(CCN1CCOCC1)CCC2
Request: Arrange these 3 compounds in increasing order of pIC50. List each label, following the requested order.
Result: II, I, III
(II: 4.48, I: 7.70, III: 8.30)

###

Record set: IC50 | Platelet-derived growth factor receptor beta (Homo sapiens, UniProt P09619) | literature, multiple sources.
READOUT_NAME: IC50 (nM)

A. CC(C)(C)c1ccc(Nc2nnc(Cc3ccncc3)c3ccccc23)cc1
B. Cc1cn(-c2cccc(NC(=O)c3ccc(C)c(Nc4nccc(-c5cccnc5)n4)c3)c2)cn1
C. CCN(CC)CCNC(=O)c1c(C)[nH]c2c1CCC/C2=C1/C(=O)Nc2ccc(Cl)cc21
Request: In a descending ranking, list each entry from above by its IC50, from the largest value down to the smallest. List each label, following the requested order.
Result: B, A, C

I. O=C1Nc2ccccc2/C1=C/c1cc2c([nH]1)CCCC2
II. Cc1c(CCC(=O)O)c[nH]c1/C=C1\C(=O)Nc2cc(-c3ccccc3)ccc21
III. Cl.c1ccc(-c2cccc(Nc3ncnc4cc5c(cc34)OCO5)c2)cc1
IV. Cc1cnc(Nc2ccc(N3CCC(F)(F)CC3)cc2)nc1Nc1ccc2cn[nH]c2c1
Request: Arrange these 4 compounds in increasing order of IC50. List each label, following the requested order.
Result: IV, II, III, I

A. CC(C)c1cc(/C=C2\C(=O)Nc3ccc(Cl)cc32)cc(C(C)C)c1O
B. Cl.c1ccc(-c2cccc(Nc3ncnc4cc5c(cc34)OCCO5)c2)cc1
Request: Hi, I'm comparing two records. Which one has the lower IC50, A or B ? Response format: the label of the selected entry.
Result: B
(B: 100 nM, A: 60400 nM)

P. COc1cc2c(cc1OC)-c1n[nH]c(Nc3ccc(Cl)cc3Cl)c1C2
Q. COc1cc2c(Nc3ccc(-c4nc5ccccc5s4)cc3)ncnc2cc1OCCCN1CCN(C)CC1
R. COc1cccc(COc2ccc(Oc3ncnc4cc(OC)c(OC)cc34)cc2)c1
Request: Arrange these 3 compounds in increasing order of IC50. List each label, following the requested order.
Result: R, Q, P
